Reported abundance fitness is given for each of the following variants.
B1: FERM and PDZ domain-containing protein 4, residues 75 to 154; numbered along this chain, Q14CM0 (parent)
chain: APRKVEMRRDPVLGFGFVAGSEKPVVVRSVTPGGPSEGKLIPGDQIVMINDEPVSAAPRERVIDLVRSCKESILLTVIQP

variants of: B1; test: abundance fitness (aPCA) (normalised: wild type 0, dead -1); higher = more abundant; growth selection in yeast, the domain comes from the species named; settings: Homo sapiens
Reply with just the number.

[
  {
    "change": "I46S",
    "abundance fitness": 0.073
  },
  {
    "change": "D64Q",
    "abundance fitness": -0.013
  },
  {
    "change": "F17W",
    "abundance fitness": -0.218
  },
  {
    "change": "R8Y",
    "abundance fitness": -0.059
  },
  {
    "change": "P24A",
    "abundance fitness": -0.448
  }
]

Task: Give me measured abundance fitness, please, for this variant: F17I
Result: -0.322

Task: Give me measured abundance fitness, please, for this variant: M7K
Result: -1

Task: Give me measured abundance fitness, please, for this variant: R61S
Result: -0.029

Task: Give me measured abundance fitness, please, for this variant: I78S
Result: 0.01

Task: Give me measured abundance fitness, please, for this variant: F15V
Result: -0.815

Task: Give me measured abundance fitness, please, for this variant: E71S
Result: -0.055

Task: Give me measured abundance fitness, please, for this variant: S21P
Result: -0.169

Recorded values, source the Human Domainome abundance scans (Beltran et al. 2025).
